Where do the numbers come from? From patent US6492329B1.

Listing of entries alongside the reported number of REF cells (M ± m).
Tested on: rat embrional fibroblasts (REF)
assay-notes: Number of REF cells throughout 72-hr incubation
Type: cell-based
condition-context: 24 hours of incubation
measured-metric: number of REF cells (M ± m)

[[record]]
compound = "O=c1[nH]cnc2c1ncn2[C@@H]1O[C@H](CO)[C@@H](O)[C@H]1O [0.1% inosine, hypoxanthine-9-D-ribofuranoside]"
measured_metric = "number of REF cells (M ± m)"
result = "1426 ± 24 × 10^3 cells"

[[record]]
compound = "OO [0.003% H2O2, hydrogen peroxide]"
measured_metric = "number of REF cells (M ± m)"
result = "1365 ± 14 × 10^3 cells"

[[record]]
compound = "C[S+](C)[O-]"
measured_metric = "number of REF cells (M ± m)"
result = "1420 ± 17 × 10^3 cells"

[[record]]
compound = "NCCSSCCNC(=O)CNC(=O)C(CSSCC(NC(=O)CCC(N)C(=O)O)C(=O)NCC(=O)O)NC(=O)CCC(N)C(=O)O (centres unmarked)"
measured_metric = "number of REF cells (M ± m)"
result = "1422 ± 14 × 10^3 cells"

[[record]]
compound = "NCCSSCCN [0.1% cystamine, 2,2′-Dithio-bis[ethylamine]]"
measured_metric = "number of REF cells (M ± m)"
result = "1523 ± 11 × 10^3 cells"


----------
Listing of entries alongside the reported Accumulation of ascitic (weight gain, %).
Tested on: leukemia L1210 cells
assay-notes: Leukemia L1210 in mice: ascitic fluid and survival (Example 14)
condition-context: leukemia L1210; number of injection 3
measured-metric: Accumulation of ascitic (weight gain, %)

[[record]]
compound = "NCCSSCCNC(=O)CNC(=O)C(CSSCC(NC(=O)CCC(N)C(=O)O)C(=O)NCC(=O)O)NC(=O)CCC(N)C(=O)O (centres unmarked) [S-thioethylamine-GSSG + normal saline]"
measured_metric = "Accumulation of ascitic (weight gain, %)"
result = "3.1 ± 0.4%"

[[record]]
compound = "C[S+](C)[O-] [7% DMSO]"
measured_metric = "Accumulation of ascitic (weight gain, %)"
result = "6.4 ± 1.4%"

[[record]]
compound = "NCCSSCCN [0.1% cystamine, 2,2′-Dithio-bis[ethylamine]]"
measured_metric = "Accumulation of ascitic (weight gain, %)"
result = "8.2 ± 0.6%"

[[record]]
compound = "OO [0.003% H2O2, hydrogen peroxide]"
measured_metric = "Accumulation of ascitic (weight gain, %)"
result = "6.1 ± 0.4%"

[[record]]
compound = "O=c1[nH]cnc2c1ncn2[C@@H]1O[C@H](CO)[C@@H](O)[C@H]1O [0.1% inosine, hypoxanthine-9-D-ribofuranoside]"
measured_metric = "Accumulation of ascitic (weight gain, %)"
result = "7.9 ± 0.4%"


----------
System: Erlich adenocarcinoma cells
assay-notes: Erlich adenocarcinoma in mice: ascitic fluid and survival (Example 14)
condition-context: mice inoculated with Erlich adenocarcinoma cells
Listing of entries alongside the reported Mean survival time.
measured-metric: Mean survival time

[[record]]
compound = "C[S+](C)[O-] [7% DMSO]"
numeric_readout = 10.3

[[record]]
compound = "O=c1[nH]cnc2c1ncn2[C@@H]1O[C@H](CO)[C@@H](O)[C@H]1O [0.1% inosine, hypoxanthine-9-D-ribofuranoside]"
numeric_readout = 10.1

[[record]]
compound = "OO [0.003% H2O2, hydrogen peroxide]"
numeric_readout = 9.8

[[record]]
compound = "NCCSSCCN [0.1% cystamine, 2,2′-Dithio-bis[ethylamine]]"
numeric_readout = 10.2

[[record]]
compound = "NCCSSCCNC(=O)CNC(=O)C(CSSCC(NC(=O)CCC(N)C(=O)O)C(=O)NCC(=O)O)NC(=O)CCC(N)C(=O)O (centres unmarked) [S-thioethylamine-GSSG + normal saline]"
numeric_readout = 16.2

